# Species: Rattus norvegicus
# method_summary: Percent change in total cholesterol in peanut oil (5.5%) - cholic acid (0.3%) - Cholesterol (1.5%) fed rats after a single dose
# Type: functional
Give Delta TC for every item shown.

- smiles_record: "Cc1ccc(C2(CNC(=O)Nc3c(C(C)C)cccc3C(C)C)CCCC2)c(C)c1"
  Delta TC: "-50%"

Dear colleague, could you send me Delta TC for each of the items below? Thanks.
1. CC(C)c1cccc(C(C)C)c1NC(=O)NCC1(c2cccc(C(F)(F)F)c2)CCCC1
2. Cc1ccc(C)c(C2(CNC(=O)Nc3c(C(C)C)cccc3C(C)C)CCCC2)c1

-45%
-48%

* * *

# System: Rattus norvegicus
# method_summary: Compound was evaluated in experiment 1 for change in non High density lipoprotein at the doses at 1.0 (mg/kg) dose
# Type: functional
Give Change non HDL-C for every item shown.
One number for each entry, in %.

Worked examples follow.
- compound: "CC(C)c1cccc(C(C)C)c1NC(=O)NCC1(c2cccc(CN3CCN(C)CC3)c2)CCCC1"
  unit_name: "%"
  Change non HDL-C: -36
- compound: "CCCCN(CCCC)Cc1cccc(C2(CNC(=O)Nc3c(C(C)C)cccc3C(C)C)CCCC2)c1"
  unit_name: "%"
  Change non HDL-C: -12
- compound: "CC(C)c1cccc(C(C)C)c1NC(=O)NCC1(c2ccc(N(C)C)cc2)CCCC1.Cl [NEVANIMIBE HYDROCHLORIDE]"
  unit_name: "%"
  Change non HDL-C: -32

Turning to the following compound.
What does the data say about its Change non HDL-C? Entry: CC(C)c1cccc(C(C)C)c1NC(=O)NCC1(c2cccc(CN3CCOCC3)c2)CCCC1 -14
